biological target: full-length SHP2 (His6-tagged SHP2(2-527)) (Homo sapiens); construct: His6-tagged SHP2(2-527); His6; made in house; host or cells: E. coli; experiment: SHP2 Enzymatic Assay (fluorescence intensity kinetic assay, DiFMUP hydrolysis); type: biochemical
Each entry below carries its reported pIC50.
By convention, pIC50 is the negative base-10 log of a molar concentration.

Summary: Nc1nccc(Sc2ccc3nc(N4CC5(Cc6ccccc6[C@H]5N)C4)cnc3n2)c1Cl , full-length SHP2 (His6-tagged SHP2(2-527)) (Homo sapiens), pIC50 = 7.28

* * *

biological target: full-length SHP2 (His6-tagged SHP2(2-527)) (Homo sapiens); construct: His6-tagged SHP2(2-527); His6; made in house; host or cells: E. coli; experiment: SHP2 Enzymatic Assay (fluorescence intensity kinetic assay, DiFMUP hydrolysis); assay type: biochemical
Readings of IC50 for the listed compounds
Just the number in µM, nothing appended.

compound	endpoint name	unit name	recorded measurement
Nc1ncc(Sc2ccc3nc(N4CCC5(CC4)Cc4ccccc4[C@H]5N)cnc3n2)c(Cl)c1Cl	IC50	µM	0.039
C[C@@H]1OCC2(CCN(c3cnc4nc(Sc5ccnc6c5ccn6C)ccc4n3)CC2)[C@@H]1N	IC50	µM	0.134
CC1(N)CCN(c2cnc3nc(Sc4cccc5ccncc45)ccc3n2)CC1	IC50	µM	0.46

The observed IC50 for Cc1nccc(Sc2ccc3nc(N4CCC[C@@](C)(N)CC4)cnc3n2)c1Cl (single isomer, unassigned) when tested with full-length SHP2 (His6-tagged SHP2(2-527)) (Homo sapiens) stands at 0.05

Value sought: IC50, system full-length SHP2 (His6-tagged SHP2(2-527)) (Homo sapiens), item C[C@@]1(N)CCCN(c2cnc3nc(Sc4ccnc(N)c4Cl)ccc3n2)CC1 (single isomer, unassigned) . Result: 0.042

// assay full-length SHP2 (His6-tagged SHP2(2-527)) (Homo sapiens), entry NCC1CN(c2cnc3nc(-c4cccc(Cl)c4Cl)ccc3n2)CCO1 (stereo not shown) , IC50 value = 0.73

Log: full-length SHP2 (His6-tagged SHP2(2-527)) (Homo sapiens), compound C[C@@H]1OCC2(CCN(c3cnc4nc(-c5ccccc5)ccc4n3)CC2)[C@@H]1N , IC50 = 2.75

# value of IC50, full-length SHP2 (His6-tagged SHP2(2-527)) (Homo sapiens), item NC1(CO)CCN(c2cnc3nc(Sc4ccnc(N5CCCC5)c4Cl)ccc3n2)CC1 = 0.092

Record Nc1nccc(Sc2ccc3nc(N4CC5(Cc6ccccc6[C@@H]5N)C4)cnc3n2)c1Cl ; system full-length SHP2 (His6-tagged SHP2(2-527)) (Homo sapiens); IC50 = 0.203

IC50 value, target or system full-length SHP2 (His6-tagged SHP2(2-527)) (Homo sapiens), for NCC1CN(c2cnc3nc(Sc4ccnc(N)c4Cl)ccc3n2)C1 : 0.481

full-length SHP2 (His6-tagged SHP2(2-527)) (Homo sapiens) assay, compound CNc1nccc(Sc2ccc3nc(N4CCC(C)(N)CC4)cnc3n2)c1Cl , recorded IC50 = 0.045

Let me check: Cc1nccc(Sc2ccc3nc(N4CCC5(CC4)CO[C@@H](C)[C@H]5N)cnc3n2)c1C , system full-length SHP2 (His6-tagged SHP2(2-527)) (Homo sapiens), measured IC50 is 0.335

Simply: Nc1nccc(Sc2ccc3nc(N4CCO[C@@H]5CNC[C@H]54)cnc3n2)c1Cl , full-length SHP2 (His6-tagged SHP2(2-527)) (Homo sapiens), IC50 = 0.78

Noted IC50 for N#Cc1ccc2c(c1)[C@@H](N)C1(CCN(c3cnc4nc(Sc5ccnc(N)c5Cl)ccc4n3)CC1)C2 (single isomer, unassigned) , tested on full-length SHP2 (His6-tagged SHP2(2-527)) (Homo sapiens): 0.033

Form field IC50 for item N[C@@H]1c2ccccc2CC12CCN(c1cnc3nc(Sc4cccnc4C(F)(F)F)ccc3n1)CC2 on full-length SHP2 (His6-tagged SHP2(2-527)) (Homo sapiens): 0.039

Query Nc1nccc(Sc2ccc3nc(N4CCC[C@H](N)CC4)cnc3n2)c1Cl on full-length SHP2 (His6-tagged SHP2(2-527)) (Homo sapiens); IC50 returned: 0.065

* * *

biological target: full-length SHP2 (His6-tagged SHP2(2-527)) (Homo sapiens, UniProt Q06124); construct: His6-tagged SHP2(2-527); His6; made in house; host or cells: E. coli; assay: SHP2 Enzymatic Assay (fluorescence intensity kinetic assay, DiFMUP hydrolysis); type: biochemical
Sequence (Q06124 2-527): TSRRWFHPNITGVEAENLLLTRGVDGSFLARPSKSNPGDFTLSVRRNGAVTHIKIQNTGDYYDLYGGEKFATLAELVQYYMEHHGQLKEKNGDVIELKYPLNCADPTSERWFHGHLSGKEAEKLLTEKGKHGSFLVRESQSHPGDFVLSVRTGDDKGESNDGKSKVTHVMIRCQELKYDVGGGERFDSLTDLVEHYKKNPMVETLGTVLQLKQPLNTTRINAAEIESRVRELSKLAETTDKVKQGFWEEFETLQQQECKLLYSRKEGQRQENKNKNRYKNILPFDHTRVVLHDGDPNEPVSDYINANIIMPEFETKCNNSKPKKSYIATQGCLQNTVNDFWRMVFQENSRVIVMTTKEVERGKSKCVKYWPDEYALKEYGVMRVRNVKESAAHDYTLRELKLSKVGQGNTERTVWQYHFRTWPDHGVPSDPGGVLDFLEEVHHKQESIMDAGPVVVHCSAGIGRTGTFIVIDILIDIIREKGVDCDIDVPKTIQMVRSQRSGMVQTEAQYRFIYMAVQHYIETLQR
endpoint name: pIC50
// pIC50: -log10(molar conc.)

Some solved cases for reference:
molecule	pIC50
C[C@@H]1OCC2(CCN(c3cnc4nc(Sc5cc(N)ncc5Cl)ccc4n3)CC2)[C@@H]1N	7.05
C[C@@H]1OCC2(CCN(c3cnc4nc(Sc5ccnc(N6CC[C@H](O)C6)c5Cl)ccc4n3)CC2)[C@@H]1N	6.98
N[C@@H]1c2ccccc2CC12CCN(c1cnc3nc(Sc4ccnc5c4C(F)(F)C(=O)N5)ccc3n1)CC2	7.59
COc1ccc(F)c(-c2ccc3nc(N4CCC(C)(N)CC4)cnc3n2)c1Cl	6.04

GET /value?item= Nc1nccc(Sc2ccc3nc(N4CC5CCC4CNC5)cnc3n2)c1Cl (centres unmarked) &field=pIC50 returns 6.88

Reported pIC50 ( Nc1nccc(Sc2ccc3nc(N4CCC5(CCCC5N)C4)cnc3n2)c1Cl (centres unmarked) ) = 6.76

// CC1(N)CCN(c2cnc3nc(Cc4cccc(Cl)c4Cl)ccc3n2)CC1 : pIC50 value = 5.70

pIC50 for Cc1nc2nc(Sc3cccc(Cl)c3Cl)ccc2nc1N1CCC(C)(N)CC1 is 6.20

Form field pIC50, entry NCC1(O)CCN(c2cnc3nc(Sc4ccnc(N)c4Cl)ccc3n2)CC1 : 7.02

* * *

Examples of compounds with documented IC50 follow.
target: full-length SHP2 (His6-tagged SHP2(2-527)) (Homo sapiens); construct: His6-tagged SHP2(2-527); His6; made in house; host or cells: E. coli; assay: SHP2 Enzymatic Assay (fluorescence intensity kinetic assay, DiFMUP hydrolysis); format: biochemical
Write down the numeric answer in nM and omit the unit.

Consider the following illustrative entries.
compound	unit name	IC50
C[C@@H]1OCC2(CCN(c3cnc4nc(Sc5ccnc6[nH]cnc56)ccc4n3)CC2)[C@@H]1N	nM	419
Nc1nccc(Sc2ccc3nc(N4CCC5(CC4)Cc4c(Cl)cccc4[C@H]5N)cnc3n2)c1Cl	nM	50
Nc1nccc(Sc2ccc3nc(N4CCC5(CC4)CC(F)(F)C[C@H]5N)cnc3n2)c1Cl (stereo in doubt)	nM	47
C[C@@]1(N)CCN(c2cnc3nc(Sc4ccnc(N)c4Cl)ccc3n2)C1	nM	200
Nc1nccc(Sc2ccc3nc(N4CCC5(CC4)Cc4cccnc4C5N)cnc3n2)c1Cl (centres unmarked)	nM	106
CCC1(N)CCN(c2cnc3nc(Sc4ccnc(N)c4Cl)ccc3n2)CC1	nM	96
CC1(N)CCN(c2cnc3nc(Sc4ccc(N)nc4Cl)ccc3n2)CC1	nM	176

--- query ---
The recorded IC50 for C[C@@H]1OCC2(CCN(c3cnc4nc(Sc5ccnc6[nH]ccc56)ccc4n3)CC2)[C@@H]1N is 59

* * *

target: full-length SHP2 (His6-tagged SHP2(2-527)) (Homo sapiens); construct: His6-tagged SHP2(2-527); His6; made in house; host or cells: E. coli; assay: SHP2 Enzymatic Assay (fluorescence intensity kinetic assay, DiFMUP hydrolysis); format: biochemical; details: full-length SHP2 with 1 μM activating peptide, 50 μM DiFMUP; single assay or mean of multiple assays; read-out: Biological Example 1 IC50
endpoint name: IC50 (nM)
Kindly provide the numeric value in nM only, without the unit symbol.

molecule	recorded measurement
CNC1(C)CCN(c2cnc3nc(Sc4ccnc(N)c4Cl)ccc3n2)CC1	100
CC1(N)CCN(c2cnc3nc(Sc4ccnc(N)c4Cl)ccc3n2)CC1	33
Nc1nccc(Sc2ccc3nc(N4CCC5(CC4)Cc4cc(F)ccc4[C@H]5N)cnc3n2)c1Cl	27
CC1(N)CCN(c2cnc3nc(Sc4cccc(C#N)c4Cl)ccc3n2)CC1	270
CC1(N)CCN(c2cnc3nc(-c4cccc(Cl)c4Cl)ccc3n2)CC1	93
CC1(N)CCN(c2cnc3nc(-c4cccc5ccccc45)ccc3n2)CC1	290

Per the records, this molecule ( Nc1nccc(Sc2ccc3nc(N4CCC5(CC4)C[C@@H](O)C[C@H]5N)cnc3n2)c1Cl ) has IC50 equal to 60

Lookup result for Cc1ccc2c(c1)[C@@H](N)C1(CCN(c3cnc4nc(Sc5ccnc(N)c5Cl)ccc4n3)CC1)C2 ; measured IC50: 57

Lab note: Nc1nccc(Sc2ccc3nc(N4C[C@H]5C[C@@H](C4)[C@H]5N)cnc3n2)c1Cl gave IC50 of 64

* * *

biological target: full-length SHP2 (His6-tagged SHP2(2-527)) (Homo sapiens); construct: His6-tagged SHP2(2-527); His6; made in house; host or cells: E. coli; assay: SHP2 Enzymatic Assay (fluorescence intensity kinetic assay, DiFMUP hydrolysis); assay type: biochemical
Reported IC50 is given for each of the following compounds.
Could you give me the number in nM? Just the number is fine.

compound	unit name	IC50
C[C@@H]1OCC2(CCN(c3cnc4nc(Sc5ccc(N)nc5Cl)ccc4n3)CC2)[C@@H]1N [Example 105]	nM	82

Record CC1(N)CCN(c2cnc3nc(-c4ccnc(N5CC[C@@H](O)C5)c4Cl)ccc3n2)CC1 [Example 46] , field IC50: 2900

The value of IC50 measured for the compound CC(C)(C)OC(=O)N[C@H]1[C@@H]2C[C@H]1CN(c1cnc3nc(Sc4ccnc(N)c4Cl)ccc3n1)C2 [Example 138] turned out to be 574

Memo: CC1(N)CCN(c2cnc3nc(-c4ccnc(NCCO)c4Cl)ccc3n2)CC1 [Example 47] , reported IC50: 6000

The recorded IC50 for COc1c(Sc2ccc3nc(N4CCC5(CC4)CO[C@@H](C)[C@H]5N)cnc3n2)ccnc1N [Example 153] is 164

According to the records, this compound N[C@@H]1c2ccccc2CC12CCN(c1cnc3nc(Sc4ccnc(NCCO)c4Cl)ccc3n1)CC2 [Example 110] displays IC50 of 44

These entries and their values trace back to patent US12187721B2.
